Tested on: SK-OV-3 ovarian
Assay: NCI tumour cell line growth inhibition, 48 h
Entries and their TGI values follow.

# Compound, TGI
measured = [
    ("CCOC(=O)C(NCc1ccc2c(c1)OCO2)(NC(=O)c1ccccc1)C(F)(F)F (centres undefined)", "> 100 µM"),
    ("COc1c(NC(C)=O)cc(C)cc1NC(C)=O", "> 100 µM"),
    ("CCOC(=O)C1=C(C)OC(=O)[C@@]2(OC)C=C(Cl)[C@@]12C", "> 100 µM"),
    ("COc1ccc2c3c(n(Cc4ccccc4)c(=O)c2c1)-c1cc(OC)c(OC)cc1C3C (centres undefined)", "> 80.4 µM"),
    ("CO/N=C(/C(=O)N(C(=O)/C(=N/OC)c1csc(NC(c2ccccc2)(c2ccccc2)c2ccccc2)n1)n1cnn(CC(=O)OC(C)(C)C)c1=O)c1csc(NC(c2ccccc2)(c2ccccc2)c2ccccc2)n1", "> 10 µM"),
    ("O=P(NC12CC3CC(CC(C3)C1)C2)(N1CC1)N1CC1", "> 100 µM"),
    ("C/C(=C\\C1=C(Cl)C(=O)c2ccccc2C1=O)C(=O)O", "33.1 µM"),
    ("O=C1OCCC1C(O)C1c2ccccc2-c2ccccc21 (centres undefined)", "> 100 µM"),
    ("O=C([O][Hg][CH2]C1COC([CH2][Hg][O]C(=O)c2ccccc2)CO1)c1ccccc1 (centres undefined)", "31.4 µM"),
]

====

System: KM12 colon
Assay: NCI tumour cell line growth inhibition, 48 h; in the data active = GI50 below about 0.43 µM; inactive = the rest
Outcome codes: active, inactive

# Smiles entry, Class
measured = [
    ("CC[C@H](Nc1nc(N)nc(C)c1C#N)c1nc2cccc(NCc3ccc(C(=O)NO)cc3)c2c(=O)n1-c1ccccc1", "inactive"),
    ("C/C(=N\\N=C(\\[Se])N1CCN(c2ccccn2)CC1)c1ccccn1", "active"),
    ("COc1ccc(-c2nn(-c3cccc(NC(=O)c4ccc5c(c4)OCCO5)c3)cc2-c2ccncc2)cc1Cl", "inactive"),
    ("COC(=O)[C@]12CC[C@@H](C)[C@H](C)[C@@H]1C1=CC[C@@H]3[C@@]4(C)C(C=O)=C[C@@](C)(COC(=O)c5ccco5)[C@@H]4C(=O)C[C@@]3(C)[C@]1(C)CC2", "inactive"),
]

====

Entries and their TGI values follow.
System: OVCAR-5 ovarian
Assay: NCI tumour cell line growth inhibition, 48 h
Property measured: TGI

# Compound, Reported result
data = [
    ("N/C(=N\\N=C\\c1c[nH]c2cc(C(F)(F)F)ccc2c1=O)NO", "> 10 µM"),
    ("CCOP(=O)(OCC)C(N)Cc1ccc(OC)c(OC)c1 (centres undefined)", "> 100 µM"),
    ("COC(=O)[C@]12CC[C@@H](C)[C@H](C)[C@@H]1C1=CC[C@@H]3[C@@]4(C)C(C=O)=C[C@@](C)(COC(=O)c5ccco5)[C@@H]4C(=O)C[C@@]3(C)[C@]1(C)CC2", "> 100 µM"),
    ("C=C1CC[C@@H](Br)C(C)(C)[C@]12CCC(C)(O)C(Cl)C2 (some centres undefined)", "36.9 µM"),
    ("Cn1cc(C2=C(c3cccnc3)C(=O)NC2=O)c2ccccc21", "> 25 µM"),
    ("Cc1ccc2nc(-c3ccc(-n4c(C)nc(=O)c(-c5ccc(F)cc5)c4C)cc3)sc2c1", "35.9 µM"),
    ("CCOc1cc2c(cc1O)/C(=N\\O)C[C@@H]1[C@@H]2CC[C@]2(C)[C@@H](O)CC[C@@H]12", "> 100 µM"),
    ("CCCCCC[C@H]1CC(=O)C2CCCC[C@@]23CC[C@H](CCl)N13 (some centres undefined) (tested in a mixture with another compound)", "> 100 µM"),
    ("Oc1ccc(O)c(-c2cc(-c3ccccc3)nn2-c2ccccc2)c1", "27 µM"),
]

====

System: OVCAR-4 ovarian
Assay: NCI tumour cell line growth inhibition, 48 h
Property measured: TGI

# Compound, Property measured, Reported result
measured = [
    ("CC(=O)c1cc2c(cc1Nc1c3ccccc3nc3occ(Cl)c13)OCO2", "TGI", "> 100 µM"),
    ("NC(=S)Nc1cc(Cl)ccc1Cl", "TGI", "> 100 µM"),
    ("NNC(=S)N/N=C(/C(=O)Nc1cc(Cl)ccc1Cl)C1C(=O)Nc2ccccc2S1=O (stereo not drawn)", "TGI", "> 100 µM"),
]

====

Test system: HS 578T breast
Test: NCI tumour cell line growth inhibition, 48 h
Entries and their GI50 values follow.

# Compound, GI50
data = [
    ("C=CC(C=O)C1(O)CCOC(=O)/C1=C\\N (stereo not given)", "7.57 µM"),
    ("CCCC[N+](CCCC)=c1ccc2nc3c(C)cc(N(CC)CC)cc3sc-2c1", "0.341 µM"),
    ("COc1cccc2c1-c1c(c3ccc([N+](=O)[O-])cc3c(=O)n1CCCCl)C2=O", "25.2 µM"),
    ("O=C(CN1CCN(c2ccc(Cl)cc2)CC1)N1CCN(c2nnc(-c3ccc(Cl)cc3)c(-c3ccc(Cl)cc3)n2)CC1", "24 µM"),
    ("CC[C@H](Nc1nc(N)nc(C)c1C#N)c1nc2cccc(NCc3ccc(C(=O)NO)cc3)c2c(=O)n1-c1ccccc1", "1.95 µM"),
]

====

Tested on: COLO 205 colon
Assay: NCI tumour cell line growth inhibition, 48 h
Entries and their GI50 values follow.

# Smiles entry, Experimental system, GI50
data = [
    ("CN1CCN(Cc2ccc(NC(=O)c3cncc(C#Cc4cncc5ncccc45)c3)cc2C(F)(F)F)CC1", "COLO 205 colon", "1110 nM"),
    ("CC(C)(C#N)c1cc(F)cc(C(=O)Nc2cc(Nc3ncccc3-c3ncnc4nc[nH]c34)ccc2F)c1", "COLO 205 colon", "109 nM"),
    ("COC(=O)[C@]12CC[C@@H](C)[C@H](C)[C@@H]1C1=CC[C@@H]3[C@@]4(C)C(C=O)=C[C@@](C)(COC(=O)c5ccco5)[C@@H]4C(=O)C[C@@]3(C)[C@]1(C)CC2", "COLO 205 colon", "31.4 nM"),
    ("CC(=O)c1cc2c(cc1Nc1c3ccccc3nc3occ(Cl)c13)OCO2", "COLO 205 colon", "391 nM"),
    ("CCOC(=O)c1c2c(n(Cc3ccccc3)c1C)-c1ccccc1C(=O)C2=O", "COLO 205 colon", "15600 nM"),
]

====

System: BT-549 breast
Assay: NCI tumour cell line growth inhibition, 48 h
Entries and their GI50 values follow.

# Compound, Experimental system, GI50
data = [
    ("Cc1cc(C2=NNC(=O)Cc3cc4c(cc32)OCCO4)cc(C)c1N", "BT-549 breast", "3.36 µM"),
    ("CC1CCN(CCCCCOc2ccc3oc4cc(Cl)ccc4c(=O)c3c2)CC1", "BT-549 breast", "6.54 µM"),
    ("CC(C)(C#N)c1cc(F)cc(C(=O)Nc2cc(Nc3ncccc3-c3ncnc4nc[nH]c34)ccc2F)c1", "BT-549 breast", "3.63 µM"),
    ("Cc1cccc(C(=O)/C=C/SC(=NC#N)SCc2ccccc2)c1", "BT-549 breast", "16.1 µM"),
    ("Oc1ccc(O)c(-c2cc(-c3ccccc3)nn2-c2ccccc2)c1", "BT-549 breast", "13.4 µM"),
    ("CCOC(=O)C1=C(C)NC2SC(=O)/C(=C\\c3ccccc3O)N2C1c1ccccc1 (centres undefined)", "BT-549 breast", "23.3 µM"),
    ("CC/C=C\\C/C=C\\C[C@H](O)C/C=C1/C(=O)C=C[C@@H]1C/C=C\\CCCC(=O)O", "BT-549 breast", "2.96 µM"),
    ("C[C@@H]1CC[C@@H]2[C@@H]1[C@H](OC(=O)/C=C/c1ccccc1)[C@]1(C3CCCCC3)C[C@@H](NC(=O)CO)[C@@]2(C)O1", "BT-549 breast", "13.2 µM"),
    ("CC[C@H](Nc1nc(N)nc(C)c1C#N)c1nc2cccc(NCc3ccc(C(=O)NO)cc3)c2c(=O)n1-c1ccccc1", "BT-549 breast", "1.56 µM"),
]

====

Tested on: HOP-92 NSCLC
Assay: NCI tumour cell line growth inhibition, 48 h

# Compound, Readout qualifier, TGI / µM
records = [
    ("N#Cc1ccc(N2Cc3ccccc3OC3=C2C(=O)c2c(O)ccc(O)c2C3=O)cc1", "=", 0.409),
    ("CC/C=C\\C/C=C\\C[C@H](O)C/C=C1/C(=O)C=C[C@@H]1C/C=C\\CCCC(=O)O", "=", 20.4),
    ("Cc1cnc(/C=N\\NC(N)=S)c2cccc(N)c12", ">", 100),
    ("CN(C)c1ncnc2c1nnn2C1OC(CO)C(O)C1O (stereo unspecified)", "=", 1.23),
    ("C=C1CC[C@@H](Br)C(C)(C)[C@]12CCC(C)(O)C(Cl)C2 (stereo partly specified)", "=", 46.3),
    ("Nc1nncc2c1ccn2C1OC(CO)C(O)C1O (stereo unspecified)", ">", 100),
    ("CCN1C(NN)=NS(=O)(=O)c2ccccc21", ">", 100),
    ("CC(=O)OC/C=C/Cn1ncc(=O)[nH]c1=O", ">", 100),
    ("O=C(Nc1ccc(Oc2ccc3nc(NC(=O)c4ccccc4)[nH]c3c2)cc1)Nc1cc(C(F)(F)F)ccc1F", "=", 8.81),
    ("CCOC(=O)CC1(O)CCCCC1(Sc1ccc(C)cc1)Sc1ccc(C)cc1 (stereo unspecified)", ">", 100),
    ("CC(=O)C1=C(C)Cn2c(=O)c3ccccc3c(=O)n2C1", ">", 100),
]
